Hello, the source for this data is ChEMBL document CHEMBL1136003, in case you need it.

Provide the recorded inhibition for the entries that follow.
- Assayed target: Adenosine receptor A1 (Homo sapiens) (UniProt P30542)
- Sequence (P30542 whole entry): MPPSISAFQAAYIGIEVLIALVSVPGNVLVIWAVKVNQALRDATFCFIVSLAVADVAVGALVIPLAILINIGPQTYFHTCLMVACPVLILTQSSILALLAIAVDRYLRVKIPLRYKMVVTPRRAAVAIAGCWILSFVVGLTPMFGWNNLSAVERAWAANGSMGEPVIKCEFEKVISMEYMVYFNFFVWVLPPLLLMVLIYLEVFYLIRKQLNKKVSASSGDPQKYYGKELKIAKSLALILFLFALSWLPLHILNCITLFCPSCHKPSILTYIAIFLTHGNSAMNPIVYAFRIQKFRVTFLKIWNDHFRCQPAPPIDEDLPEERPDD
- Run description: Inhibition of [3H]CPX binding to membrane of CHO-K cells stably expressing human adenosine A1 receptors.
- Type: cell membranes
- Parameters: concentration or dose not given beside the values
- Condition context: concentration not given here
The reply should contain only the number, in %.

Query block: Returns the measured inhibition for the input compound. Input: `Nc1sc2c(c1C(=O)c1ccc(I)cc1)CCCC2`
Result block: 62

Query block: Returns the measured inhibition for the input compound. Input: `Nc1sc2c(c1C(=O)c1ccc(F)cc1)CCCC2`
Result block: 56

Query block: Returns the measured inhibition for the input compound. Input: `Nc1sc2c(c1C(=O)c1cccc(Cl)c1)CCCCC2`
Result block: 10

Query block: Returns the measured inhibition for the input compound. Input: `N#Cc1ccc(C(=O)c2c(N)sc3c2CCCC3)cc1`
Result block: 21

Query block: Returns the measured inhibition for the input compound. Input: `COc1cccc(C(=O)c2c(N)sc3c2CCCCC3)c1`
Result block: 13

Query block: Returns the measured inhibition for the input compound. Input: `Nc1sc2c(c1C(=O)c1cccc(Br)c1)CCCCC2`
Result block: 7

Query block: Returns the measured inhibition for the input compound. Input: `Nc1sc2c(c1C(=O)c1ccccc1)CCCC2`
Result block: 42

Query block: Returns the measured inhibition for the input compound. Input: `Cc1ccc(C(=O)c2c(N)sc3c2CCCC3)cc1`
Result block: 36

Query block: Returns the measured inhibition for the input compound. Input: `Nc1sc2c(c1C(=O)c1ccccc1)CCCCC2`
Result block: 68

Query block: Returns the measured inhibition for the input compound. Input: `CCOC(=O)c1c(N)sc2c1CCCCC2`
Result block: 38

Query block: Returns the measured inhibition for the input compound. Input: `CCOC(=O)c1c(N)sc2c1CCCC2`
Result block: 53

Query block: Returns the measured inhibition for the input compound. Input: `Nc1sc2c(c1C(=O)c1ccc(I)cc1)CCCCC2`
Result block: 9

Query block: Returns the measured inhibition for the input compound. Input: `Nc1sc2c(c1C(=O)c1ccc3ccccc3c1)CCC2`
Result block: 21

Query block: Returns the measured inhibition for the input compound. Input: `Nc1sc2c(c1C(=O)c1ccc(Br)cc1)CCCC2`
Result block: 61

Query block: Returns the measured inhibition for the input compound. Input: `Nc1sc2c(c1C(=O)c1ccc(Cl)cc1)CCCC2`
Result block: 69

Query block: Returns the measured inhibition for the input compound. Input: `Nc1sc2c(c1C(=O)c1ccc(C3CCCCC3)cc1)CCCC2`
Result block: 47

Query block: Returns the measured inhibition for the input compound. Input: `Nc1sc2c(c1C(=O)c1ccc(Br)cc1)CCCCC2`
Result block: 7
